TEST SYSTEM: serotonin reuptake sites (Rattus norvegicus, UniProt P31652)
Construct: from tissue; host or cells: rat cortical membranes (from the title of the cited method)
Sequence (P31652 whole entry): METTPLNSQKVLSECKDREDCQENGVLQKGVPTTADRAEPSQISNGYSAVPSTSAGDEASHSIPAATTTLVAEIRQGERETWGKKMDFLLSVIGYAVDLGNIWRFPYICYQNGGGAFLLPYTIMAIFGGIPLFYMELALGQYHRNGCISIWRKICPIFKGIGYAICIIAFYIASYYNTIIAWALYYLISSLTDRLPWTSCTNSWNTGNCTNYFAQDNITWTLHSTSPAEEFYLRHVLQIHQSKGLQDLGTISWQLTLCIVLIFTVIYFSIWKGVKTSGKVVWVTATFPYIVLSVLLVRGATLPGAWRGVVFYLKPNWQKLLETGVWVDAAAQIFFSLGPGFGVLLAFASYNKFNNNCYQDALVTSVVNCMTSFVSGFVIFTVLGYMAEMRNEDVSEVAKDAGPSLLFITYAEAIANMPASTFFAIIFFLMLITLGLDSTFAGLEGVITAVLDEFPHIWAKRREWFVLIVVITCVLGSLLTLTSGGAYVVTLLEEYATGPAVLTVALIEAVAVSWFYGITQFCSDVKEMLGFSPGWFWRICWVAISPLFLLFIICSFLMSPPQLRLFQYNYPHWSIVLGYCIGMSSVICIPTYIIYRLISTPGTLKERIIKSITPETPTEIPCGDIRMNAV
EXPERIMENT DESCRIPTION: In vitro affinity for serotonin reuptake sites ([3H]-paroxetine binding assay, Habert et al.)
PARTICULARS: receptor binding; read-out: 5-HT reuptake binding pKi (converted)
MEASURE NAME: Ki (nM)

Guide cases for Ki, answers given:
Enquiry: Need Ki, item Cn1c(=O)oc2c(N3CCN(CCCc4c[nH]c5ccc(F)cc45)CC3)cccc21
Return: 7.94

Enquiry: Need Ki, item Cn1cc(CCCN2CCN(c3cccc4c3oc(=O)n4C)CC2)c2cc(Cl)ccc21
Return: 2.51

P = Cn1c(=O)oc2c(N3CCN(CCCc4c[nH]c5ccc(F)cc45)CC3)cc(F)cc21
Q = CC(Cc1c[nH]c2ccc(F)cc12)CN1CCN(c2cccc3c2oc(=O)n3C)CC1 (centres unmarked)
Enquiry: Would you kindly point out which of P and Q has the smaller Ki figure? # respond with the chosen item's label
Return: P

* * *

TEST SYSTEM: Human dopamine D2,L receptors (Homo sapiens)
Construct: host or cells: CHO-K1
Sequence (P14416 whole entry): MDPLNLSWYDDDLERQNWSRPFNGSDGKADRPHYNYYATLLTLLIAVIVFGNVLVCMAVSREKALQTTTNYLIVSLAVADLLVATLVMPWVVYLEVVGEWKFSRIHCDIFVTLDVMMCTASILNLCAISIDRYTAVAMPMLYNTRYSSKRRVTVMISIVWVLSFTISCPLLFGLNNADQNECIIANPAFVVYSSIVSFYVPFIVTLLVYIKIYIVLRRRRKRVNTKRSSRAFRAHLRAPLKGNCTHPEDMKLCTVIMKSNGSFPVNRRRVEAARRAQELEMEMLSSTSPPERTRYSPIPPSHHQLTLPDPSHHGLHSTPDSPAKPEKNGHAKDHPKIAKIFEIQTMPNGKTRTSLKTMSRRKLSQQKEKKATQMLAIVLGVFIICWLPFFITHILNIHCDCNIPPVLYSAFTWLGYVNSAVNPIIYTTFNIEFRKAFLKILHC
EXPERIMENT DESCRIPTION: Inhibition of forskolin-induced [3H]-cAMP accumulation in CHO-K1 cells
Assay type: cell-based
PARTICULARS: Cloned human dopamine D2,L receptors, full agonist ε=1, full antagonist ε=0
MEASURE NAME: Dopamine-D2 cAMP accum ∈ (intrinsic activity)

Guide cases for Dopamine-D2 cAMP accum ∈ (intrinsic activity), answers given:
Enquiry: Need Dopamine-D2 cAMP accum ∈ (intrinsic activity), item CCn1c(=O)oc2c(N3CCN(CCCc4c[nH]c5ccc(F)cc45)CC3)cccc21 [compound 16]
Return: 0.15

Enquiry: Need Dopamine-D2 cAMP accum ∈ (intrinsic activity), item CC(CCN1CCN(c2cccc3c2oc(=O)n3C)CC1)c1c[nH]c2ccc(F)cc12 (centres unmarked) [compound 3]
Return: 0.43

Enquiry: Need Dopamine-D2 cAMP accum ∈ (intrinsic activity), item Cn1c(=O)oc2c(N3CCN(CCc4c[nH]c5ccc(F)cc45)CC3)cccc21 [compound 13]
Return: 0.22

Enquiry: Need Dopamine-D2 cAMP accum ∈ (intrinsic activity), item Cn1c(=O)oc2c(N3CCN(CCCCc4c[nH]c5ccc(C#N)cc45)CC3)cccc21 [compound 12]
Return: 0.75

Enquiry: Need Dopamine-D2 cAMP accum ∈ (intrinsic activity), item Cn1cc(CCCN2CCN(c3cccc4c3oc(=O)n4C)CC2)c2cc(F)ccc21 [compound 8]
Return: 0.44

1 = C[C@@H]1CN(c2cccc3[nH]c(=O)oc23)C[C@H](C)N1CCCc1c[nH]c2ccc(F)cc12 [compound 1]
2 = Cc1cc(Cl)cc2c(CCCN3CCN(c4cccc5c4oc(=O)n5C)CC3)c[nH]c12 [compound 6]
Enquiry: Would you kindly point out which of 1 and 2 has the smaller Dopamine-D2 cAMP accum ∈ (intrinsic activity) figure? # respond with the chosen item's label
Return: 1

* * *

Where a name gives a salt, the structure may show the parent alone.
# key: entry, value: melting point

Guide cases for melting point, answers given:
Enquiry: Need melting point, item Cn1c(=O)oc2c(N3CCN(CCCc4c[nH]c5ccc(F)cc45)CC3)cc(F)cc21 (as salt: HCl)
Return: 246 to 249 °C

Enquiry: Need melting point, item Fc1ccc2[nH]cc(CCCN3CCN(c4cccc5[nH]c(=S)oc45)CC3)c2c1
Return: 238 to 240 °C (dec.)

Next:
Enquiry: Need melting point, item Cn1c(=O)oc2c(N3CCN(CCCCc4c[nH]c5ccc(F)cc45)CC3)cccc21 (as salt: HCl)
Return: 254 to 256 °C

Enquiry: Need melting point, item Cc1cc(Cl)cc2c(CCCN3CCN(c4cccc5c4oc(=O)n5C)CC3)c[nH]c12
Return: 159 to 162 °C

Enquiry: Need melting point, item CC(CCN1CCN(c2cccc3c2oc(=O)n3C)CC1)c1c[nH]c2ccc(F)cc12 (centres unmarked) (as salt: HCl)
Return: 100 to 140 °C (dec.)

Enquiry: Need melting point, item C[C@@H]1CN(c2cccc3[nH]c(=O)oc23)C[C@H](C)N1CCCc1c[nH]c2ccc(F)cc12 (as salt: HCl)
Return: 270 to 275 °C

Enquiry: Need melting point, item CC(CCc1c[nH]c2ccc(F)cc12)N1CCN(c2cccc3c2oc(=O)n3C)CC1 (centres unmarked) (as salt: HCl)
Return: 207 to 209 °C

Enquiry: Need melting point, item Cn1c(=O)oc2c(N3CCN(CCc4c[nH]c5ccc(F)cc45)CC3)cccc21
Return: 198 to 200 °C

Enquiry: Need melting point, item CCn1c(=O)oc2c(N3CCN(CCCc4c[nH]c5ccc(F)cc45)CC3)cccc21 (as salt: HCl)
Return: 100 to 140 °C

Enquiry: Need melting point, item Cn1cc(CCCN2CCN(c3cccc4c3oc(=O)n4C)CC2)c2cc(Cl)ccc21
Return: 140 to 142 °C

Enquiry: Need melting point, item CC(Cc1c[nH]c2ccc(F)cc12)CN1CCN(c2cccc3c2oc(=O)n3C)CC1 (centres unmarked)
Return: 166 to 168 °C

* * *

TEST SYSTEM: Human dopamine D2,L receptors (Homo sapiens)
Construct: host or cells: CHO-K1
EXPERIMENT DESCRIPTION: Inhibition of forskolin-induced [3H]-cAMP accumulation in CHO-K1 cells
Format: cell-based
PARTICULARS: Cloned human dopamine D2,L receptors, full agonist ε=1, full antagonist ε=0
MEASURE NAME: Dopamine-D2 cAMP accum ∈ (intrinsic activity)

Guide cases for Dopamine-D2 cAMP accum ∈ (intrinsic activity), answers given:
Enquiry: Need Dopamine-D2 cAMP accum ∈ (intrinsic activity), item Cn1c(=O)oc2c(N3CCN(CCCCc4c[nH]c5ccc(F)cc45)CC3)cccc21
Return: 0.72

Enquiry: Need Dopamine-D2 cAMP accum ∈ (intrinsic activity), item Cn1c(=O)oc2c(N3CCN(CCCc4c[nH]c5ccc(F)cc45)CC3)cccc21
Return: 0.12

A = CC(Cc1c[nH]c2ccc(F)cc12)CN1CCN(c2cccc3c2oc(=O)n3C)CC1 (centres unmarked)
B = Cn1cc(CCCN2CCN(c3cccc4c3oc(=O)n4C)CC2)c2cc(Cl)ccc21
C = Cn1c(=O)oc2c(N3CCN(CCCc4c[nH]c5ccc(C#N)cc45)CC3)cccc21
Enquiry: // ranking: key=Dopamine-D2 cAMP accum ∈ (intrinsic activity), reverse=True // format: requested-order list of labels
Return: C, A, B
(C: 0.66, A: 0.22, B: 0.15)

* * *

TEST SYSTEM: serotonin reuptake sites (Rattus norvegicus, UniProt P31652)
Construct: from tissue; host or cells: rat cortical membranes (from the title of the cited method)
EXPERIMENT DESCRIPTION: In vitro affinity for serotonin reuptake sites ([3H]-paroxetine binding assay, Habert et al.)
PARTICULARS: receptor binding; read-out: 5-HT reuptake binding pKi (converted)
# key: entry, value: Ki

Guide cases for Ki, answers given:
Enquiry: Need Ki, item CCn1c(=O)oc2c(N3CCN(CCCc4c[nH]c5ccc(F)cc45)CC3)cccc21
Return: < 1 nM

Enquiry: Need Ki, item Cn1cc(CCCN2CCN(c3cccc4c3oc(=O)n4C)CC2)c2cc(F)ccc21
Return: > 10 nM

Enquiry: Need Ki, item Cn1c(=O)oc2c(N3CCN(CCCCc4c[nH]c5ccc(C#N)cc45)CC3)cccc21
Return: < 1 nM

Please find the next compound below.
Enquiry: Need Ki, item Cn1c(=O)oc2c(N3CCN(CCCCc4c[nH]c5ccc(F)cc45)CC3)cccc21
Return: > 10 nM
